EC50 reference
# target of assay: AGTR1 (Homo sapiens)
# Construct: host or cells: Pathunter CHO-K1 AGTR1 β-arrestin cell line (CHO-K1)
# Sequence (P30556 1-359): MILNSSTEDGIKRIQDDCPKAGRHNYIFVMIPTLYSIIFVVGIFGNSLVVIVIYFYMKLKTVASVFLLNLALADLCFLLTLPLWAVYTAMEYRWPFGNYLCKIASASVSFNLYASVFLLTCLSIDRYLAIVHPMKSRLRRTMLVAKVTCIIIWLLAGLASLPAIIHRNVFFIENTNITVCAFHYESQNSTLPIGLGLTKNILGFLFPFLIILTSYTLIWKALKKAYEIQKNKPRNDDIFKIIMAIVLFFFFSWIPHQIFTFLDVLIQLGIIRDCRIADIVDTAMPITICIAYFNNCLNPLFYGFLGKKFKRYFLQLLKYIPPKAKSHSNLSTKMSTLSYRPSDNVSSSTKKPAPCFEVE
# assay text: DiscoveRx β-arrestin2 recruitment assay (enzyme complementation, Pathunter CHO-K1 AGTR1 β-arrestin cell line)
# Assay type: cell-based
# assay setup: DiscoveRx β-arrestin2 recruitment
# Procedure: In one aspect of the invention, signaling bias of compounds was assessed by comparing the relative activity of compounds to activate both the β-arrestin and Gq signaling pathways. In order to confirm signaling bias, compounds were studied in two different assay formats. DiscoveRx β-arrestin2 Recruitment and IP1 Assays β-arrestin2 recruitment to activated receptors can be assessed using an enzyme complementation method (Zhao, Jones et al. 2008). […]
Please state the figure in nM; there is no need to write the unit.

molecule: CCc1nc2c(C)cc(C)nc2n1Cc1ccc(-c2cc(N3CC[C@H](C)C3)ccc2-c2nn[nH]n2)cc1 [Example 89]
property label: EC50
unit info: nM
numeric value: 49.4
//
molecule: CCCCC(=O)N(Cc1ccc(-c2cc(-c3ccccc3)ccc2-c2nn[nH]n2)cc1)C1(C(=O)O)Cc2ccccc2C1 [Example 279]
property label: EC50
unit info: nM
numeric value: 190
//
molecule: CCCCc1nc(Cl)c(C(=O)O)n1Cc1ccc(-c2cc(Oc3ccccn3)ccc2-c2nn[nH]n2)cc1 [Example 427]
property label: EC50
unit info: nM
numeric value: 89.9

Field: next molecule
Return reported EC50; argument: CCCCc1ncc(-c2nnc(C)o2)n1Cc1ccc(-c2cc(-c3ccccc3)ccc2-c2nn[nH]n2)cc1 [Example 413]
21.8
